Measured values drawn from patent US20180362616A1 for this set.

Target: T1, human mesotrypsin (catalytically active) (human, UniProt P35030 81-304)
T1 construct: mature; In the invasion assays it is the endogenous enzyme of PC3-M cells; also called active mesotrypsin; PRSS3 gene product
T1 sequence (looked up): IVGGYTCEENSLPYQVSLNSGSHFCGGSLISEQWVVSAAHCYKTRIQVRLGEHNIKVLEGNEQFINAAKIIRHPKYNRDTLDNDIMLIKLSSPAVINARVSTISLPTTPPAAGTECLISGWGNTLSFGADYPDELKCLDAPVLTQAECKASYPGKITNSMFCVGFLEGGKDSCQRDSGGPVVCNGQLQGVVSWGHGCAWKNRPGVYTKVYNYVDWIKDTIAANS
Test: inhibition of mesotrypsin cleavage of Z-GPR-pNA
pKi: −log10 of the molar value.

BINDER	pKi
APPI-WT (SEQ ID NO: 25), soluble, expressed in Pichia pastoris (other, Secreted from P. pastoris GS115, purified by nickel IMAC and gel filtration; also called WT APPI; not shown: N-terminal FLAG tag with the SnaBI/EcoRI-coded residues, and the C-terminal AvrII-coded residues plus His6) EVCSEQAETGPCRAMISRWYFDVTEGKCAPFFYGGCGGNRNNFDTEEYCMAVCGSAI	6.88
